- test target: EGFR WT (Homo sapiens)
- Sequence (P00533 25-1210 N540K): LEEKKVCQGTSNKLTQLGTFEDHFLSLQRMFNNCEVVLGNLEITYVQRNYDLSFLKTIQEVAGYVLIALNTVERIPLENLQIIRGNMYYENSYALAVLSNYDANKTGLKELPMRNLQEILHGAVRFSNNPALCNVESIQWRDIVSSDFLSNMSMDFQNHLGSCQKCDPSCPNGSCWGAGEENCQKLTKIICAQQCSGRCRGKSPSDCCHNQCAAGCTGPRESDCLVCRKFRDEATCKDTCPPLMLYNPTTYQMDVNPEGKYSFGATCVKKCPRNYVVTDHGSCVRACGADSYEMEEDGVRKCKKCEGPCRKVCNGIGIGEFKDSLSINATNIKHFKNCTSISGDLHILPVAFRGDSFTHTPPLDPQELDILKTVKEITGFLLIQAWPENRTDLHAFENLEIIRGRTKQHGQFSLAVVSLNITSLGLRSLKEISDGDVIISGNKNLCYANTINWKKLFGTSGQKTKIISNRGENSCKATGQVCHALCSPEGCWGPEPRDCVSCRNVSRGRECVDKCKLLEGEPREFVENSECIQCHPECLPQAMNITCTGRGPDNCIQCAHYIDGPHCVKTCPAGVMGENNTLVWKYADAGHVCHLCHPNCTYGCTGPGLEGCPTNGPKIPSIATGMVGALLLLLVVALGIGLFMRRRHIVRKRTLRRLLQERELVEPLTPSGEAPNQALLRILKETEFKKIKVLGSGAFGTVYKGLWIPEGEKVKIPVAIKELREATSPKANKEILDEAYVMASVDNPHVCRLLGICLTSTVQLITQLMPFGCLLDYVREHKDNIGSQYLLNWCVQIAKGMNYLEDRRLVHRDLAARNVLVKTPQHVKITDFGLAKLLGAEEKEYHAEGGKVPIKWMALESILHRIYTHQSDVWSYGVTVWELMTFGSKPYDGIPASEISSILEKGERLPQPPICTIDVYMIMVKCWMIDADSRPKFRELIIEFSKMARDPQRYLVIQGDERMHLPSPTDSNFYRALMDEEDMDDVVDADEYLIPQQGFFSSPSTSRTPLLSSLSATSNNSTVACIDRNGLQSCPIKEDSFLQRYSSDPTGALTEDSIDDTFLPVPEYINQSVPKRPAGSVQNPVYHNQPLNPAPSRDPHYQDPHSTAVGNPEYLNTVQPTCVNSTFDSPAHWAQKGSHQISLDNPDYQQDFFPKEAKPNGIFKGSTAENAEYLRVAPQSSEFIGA
- measurement description: BaF3 cell proliferation assay, EGFR WT (Table A)
- Assay type: cell-based
- condition: potency code, 3 days, CellTiterGlo, read-out: EGFR WT (Activity for Inhibiting EGFR)
pIC50: −log10 of the molar value.
Known pIC50 of a selection of compounds

Worked set:
CC#CC(=O)Nc1cc2c(Nc3cc(Cl)c(OCc4cccc(F)c4)cc3F)ncnc2cc1OCCN1CC2CCC(C1)O2; 6.52 to 6.70
C=CC(=O)Nc1cc2c(Nc3ccc(OCc4ccccn4)c(Cl)c3)ncnc2cc1OCCN1CC2CC1CO2 (stereo not shown); 6.00 to 6.30
CC#CC(=O)Nc1cc2c(Nc3cc(Cl)c(OCc4cccc(F)c4)cc3F)ncnc2cc1O[C@@H]1CCN(C)C1; 6.70 to 7.00

Data request: Respond only with pIC50 recorded for C=CC(=O)Nc1cc2c(Nc3ccc(OCc4ccccn4)c(Cl)c3)ncnc2cc1OCCCN1CCCC1
Data returned: 7.00 to 7.30

Data request: Respond only with pIC50 recorded for CC#CC(=O)Nc1cc2c(Nc3cc(Cl)c(OCc4cccc(F)c4)cc3F)ncnc2cc1OCCN1CC(OC)C1
Data returned: 6.70 to 7.00

Data request: Respond only with pIC50 recorded for C=CC(=O)Nc1cc2c(Nc3ccc(OCc4ccccn4)c(Cl)c3)ncnc2cc1OCCN1CCC(OC)CC1
Data returned: 6.30 to 6.52

Data request: Respond only with pIC50 recorded for CC#CC(=O)Nc1cc2c(Nc3cc(Cl)c(OCc4cccc(F)c4)cc3F)ncnc2cc1OCCCN1CCOCC1
Data returned: 6.52 to 6.70

Data request: Respond only with pIC50 recorded for C=CC(=O)Nc1cc2c(Nc3ccc(OCc4ccccn4)c(Cl)c3)ncnc2cc1OCC1CCCN1C (stereo not shown)
Data returned: 6.30 to 6.52
